Experiment: Pharmacokinetics in the brain compartment compared to plasma in mice
Assay type: in vivo
Conditions: BALB/c, mouse, brain, intraperitoneal, 5 mg/kg, 5 mg/kg IP, 1 hour post dosing; read-out: estimated free drug concentration in the brain

>  <Cpd Smiles>
O=C1CCc2cc(OC[C@H](O)CN3CCN(c4ccc(C(F)(F)F)cc4)CC3)ccc2N1

>  <concentration at 1 h>
60 to 134 nM

$$$$

###

Experiment: SAD study NP10679-101, plasma pharmacokinetics
Assay type: in vivo, human
Settings: human, plasma; Cohort 1, 5 mg single IV

>  <Cpd Smiles>
O=C1CCc2cc(OC[C@H](O)CN3CCN(c4ccc(C(F)(F)F)cc4)CC3)ccc2N1

>  <MRT (h)>
52.9

$$$$
